These measurements were taken from patent US20090170762A1.

EXPERIMENTAL_SYSTEM: T1, human GIP receptor (GIP-R) (human, UniProt P48546 22-466)
T1 sequence (looked up): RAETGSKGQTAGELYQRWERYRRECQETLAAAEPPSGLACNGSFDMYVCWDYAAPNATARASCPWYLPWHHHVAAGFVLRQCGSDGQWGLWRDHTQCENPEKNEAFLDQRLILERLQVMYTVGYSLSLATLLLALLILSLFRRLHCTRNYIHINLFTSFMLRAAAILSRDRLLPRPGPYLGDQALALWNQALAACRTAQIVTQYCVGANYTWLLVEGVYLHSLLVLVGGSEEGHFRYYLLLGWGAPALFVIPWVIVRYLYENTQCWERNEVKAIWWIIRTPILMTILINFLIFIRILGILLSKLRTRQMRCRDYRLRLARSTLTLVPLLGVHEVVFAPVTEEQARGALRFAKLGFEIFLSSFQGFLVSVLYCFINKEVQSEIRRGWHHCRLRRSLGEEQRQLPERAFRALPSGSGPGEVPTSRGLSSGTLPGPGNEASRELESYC
PROCEDURE_TEXT: cell-based or functional assay
Square brackets hold non-standard residues; d marks the D form. Ends that are not written are not given here. * marks the point of attachment. Palmitoyl = CCCCCCCCCCCCCCCC(=O)*; Hyp = O=C(O)[C@@H]1C[C@@H](O)CN1
MEASURED_ENDPOINT: Cyclic AMP EC50 (nm)
Answer format: numeric, nm implied, no suffix.

Here is how some binders turned out for Cyclic AMP EC50 (nm).
BINDER	UNIT_DESCRIPTOR	Cyclic AMP EC50 (nm)
YA[Hyp]GTFISDYSIAMDK(Palmitoyl)IHQQDFVNWLLAQKGKKNDWKHNITQ [(Hyp^3)LysPAL^16GIP]	nm	138
YAWGTFISDYSIAMDKIHQQDFVNWLLAQKGKKNDWKHNITQ [(Trp^3)GIP]	nm	3
YAFGTFISDYSIAMDKIHQQDFVNWLLAQKGKKNDWKHNITQ [(Phe^3)GIP]	nm	1
YAPGTFISDYSIAMDKIHQQDFVNWLLAQKGKKNDWKHNITQ [(Pro^3)GIP]	nm	207
YA[Hyp]GTFISDYSIAMDKIHQQDFVNWLLAQKGKKNDWKHNITQ [(Hyp^3)GIP]	nm	1340
YAYGTFISDYSIAMDKIHQQDFVNWLLAQKGKKNDWKHNITQ [(Tyr^3)GIP]	nm	1.5
YAKGTFISDYSIAMDKIHQQDFVNWLLAQKGKKNDWKHNITQ [(Lys^3)GIP]	nm	2.6

Alright, here's another binder for you.
Indicate its recorded Cyclic AMP EC50 (nm); the binder in question is YAPGTFISDYSIAMDK(Palmitoyl)IHQQDFVNWLLAQKGKKNDWKHNITQ [(Pro^3)LysPAL^16GIP]
870
